// provenance: PubChem BioAssay

system_name: Fibroblast growth factor 2 (Homo sapiens)
experiment_description: FGF2 binders on small-molecule microarrays, primary screen, biochemical, small-molecule microarray, 635/667 nm fluorescence (AID 1133)
measurement_conditions: small-molecule microarray binding, FGF2, fluorescence 635/667; higher = more signal
Each item that follows carries a reported composite z-score.
Give the value as a plain number.

Solved cases (3 shown):
compound: C=CC[C@@]12N=C(c3ccc(OCCCO)cc3)O[C@@H]1c1ccccc1CN(Cc1ccccc1)C2=O
composite z-score: 0.761

compound: COCCOC(=O)N1C(=O)[C@@]2(c3cc(C#CCCO)ccc31)[C@H](c1ccc(OCCO)cc1)N1[C@H](c3ccccc3)[C@H](c3ccccc3)OC(=O)[C@H]1[C@@H]2C(=O)NC[C@H](O)c1ccccc1
composite z-score: 1.36

compound: O=C(NCC(F)(F)F)[C@@H]1c2ccccc2C(=O)N(Cc2ccccc2Cl)[C@H]1c1ccc(CO)cc1
composite z-score: -0.434

*Q* Suppose we examine the compound COCCOC(=O)N1C(=O)[C@@]2(c3cc(C#CCNC(N)=O)ccc31)[C@H](c1ccccc1OCCO)N1[C@H](c3ccccc3)[C@H](c3ccccc3)OC(=O)[C@H]1[C@@H]2C(=O)NC[C@H](O)c1ccccc1 ; what composite z-score value has been reported?
*A* 0.472

*Q* Suppose we examine the compound CCOC(=O)C1=CC[C@@H](c2ccc(-c3ccc(OCc4ccccc4)cc3)c(OC)c2)N(S(=O)(=O)c2ccc(C)cc2)[C@H]1c1ccccc1 ; what composite z-score value has been reported?
*A* 0.275

*Q* Suppose we examine the compound CSCC[C@@H]1NC(=O)CC=C[C@@H](C)COC(=O)[C@H](CCSC)NC(=O)CC=C[C@@H](C)COC1=O ; what composite z-score value has been reported?
*A* 0.296

*Q* Suppose we examine the compound CC(=O)NCCCC[C@@H]1NC(=O)[C@H]2C[C@@H](C(=O)NCCCCCCN(C)C)[C@@H](c3ccc(O)cc3)N2C1=O ; what composite z-score value has been reported?
*A* 0.903

*Q* Suppose we examine the compound C#CCNC(/C=C/c1ccccc1)CO (centres undefined) ; what composite z-score value has been reported?
*A* 0.106

*Q* Suppose we examine the compound CCC#CCN(Cc1ccccc1Br)[C@H](/C=C/c1ccccc1)[C@@H](O)Cc1ccccc1 ; what composite z-score value has been reported?
*A* -1.48

---

experiment_description: small-molecule microarray binders of probe aLefty2, primary screen, biochemical, biotinylated probe, 635/667 nm fluorescence (AID 1094);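 also: score merges spot fluorescence near 667 nm with spot signal-to-noise ratio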
measurement_conditions: higher = more signal
Each item that follows carries a reported composite z-score.
Give the value as a plain number.

compound: CO[C@H]1COC(=O)CC=C[C@H](C)[C@@H](OC)COC(=O)CC=C[C@@H]1C
composite z-score: -0.169

compound: O=C1OCC=C[C@H]2OC34C=CCN(Cc5ccccc5)C(=O)[C@H]3N(CCCCCO)C(=O)[C@@H]4[C@@H]12 (stereo partly drawn)
composite z-score: 0.0282

# evaluate next
*Q* Suppose we examine the compound C=CCN1C(=O)[C@@]2(Cc3ccccc3)N=C(c3ccc(OCCCO)cc3)O[C@H]2c2ccccc21 ; what composite z-score value has been reported?
*A* 0.44

---

System: Sonic hedgehog protein (Shh)
experiment_description: small-molecule binders of Shh protein, primary screen, biochemical, small-molecule microarray, 635/667 nm fluorescence (AID 1151);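 also: Shh protein binding to compounds spotted on small-molecule microarray slides; score combines spot fluorescence intensity with signal-to-noise across triplicate slides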
measurement_conditions: small-molecule microarray binding, 635 nm fluorescence; higher = more signal
measured_property: composite z-score
Give the value as a plain number.

Solved cases (3 shown):
compound: O=C1C2C=CC(C(O)C(c3ccccc3)c3ccccc3)N(Nc3ccc([N+](=O)[O-])cc3)C2C(=O)N1c1ccccc1 (configuration not stated)
composite z-score: 0.762
--
compound: COc1ccc([Si](C)(C)[C@@H]2[C@@H](CCO)O[C@]3(C(=O)N(Cc4ccccc4)c4ccccc43)[C@H]2C)cc1
composite z-score: 0.0843
--
compound: CCCCCCc1nc(-c2cc(C)c(OC)c(C)c2)cc2c1[Si](C(C)C)(C(C)C)O[C@H]2c1ccccc1
composite z-score: -0.162

*Q* Suppose we examine the compound CC(C)N1CC=CC23O[C@@H]4/C=C\CCCOC(=O)C4[C@H]2C(=O)N(CCCCCO)[C@@H]3C1=O (some centres not stated) ; what composite z-score value has been reported?
*A* -0.641

*Q* Suppose we examine the compound O=C1O[C@@H](c2ccccc2)[C@@H](c2ccccc2)N2[C@@H](c3ccc(O)cc3)[C@]3(C(=O)Nc4ccc(C#CC5(O)CCCCCC5)cc43)[C@@H](C(=O)Nc3nc4ccccc4s3)[C@H]12 ; what composite z-score value has been reported?
*A* 0.741

*Q* Suppose we examine the compound CO[C@H]1COC(=O)CC=C[C@H](C)[C@@H](OC)COC(=O)CC=C[C@@H]1C ; what composite z-score value has been reported?
*A* 1.32

---

experiment_description: basal RPMI8226 mitochondrial membrane potential changes, profiling panel, cell-based, JC-1 fluorescence, 24 h, 100 nL compound (AID 1169); also: test concentration not given here
measurement_conditions: RPMI8226 myeloma, JC-1 mitochondrial potential fluorescence, higher = more signal
Returns the class for an entry based on its z-score. Class ranges: L: < -0.7; M: ≥ -0.7 and < -0.2; H: ≥ -0.2

Previously resolved entries follow.
compound: CCCNC(=O)[C@@]1(Sc2ccc(C)cc2)CC(=O)N(Cc2ccccc2Cl)[C@@H]1c1ccc(CO)cc1
class_label: H
//
compound: COc1ccc([Si](C)(C)[C@H]2[C@H](CCO)O[C@@]3(C(=O)N(Cc4ccc(N5CCCCC5=O)cc4)c4ccccc43)[C@@H]2C)cc1
class_label: M
//
compound: CC(C)[Si](OCC[C@H]1O[C@]2(C(=O)N(Cc3ccccc3)c3ccccc32)[C@@H](C)[C@@H]1[Si](C)(C)O)(C(C)C)C(C)C
class_label: L
//
compound: COC(=O)Cn1c(C(=O)N2CCCC2)cc2c1C[C@H]1CN(C(=O)c3ccccc3)[C@@](Cc3ccc(OC)cc3)(C(=O)OC)[C@@H]21
class_label: M
//
compound: CN(C)c1ccc(C(O)C2C=CC3C(=O)NC(=O)C3N2Nc2ccc(Cl)cc2Cl)cc1 (stereo not drawn)
class_label: L
//
compound: Cc1ccc(N2C(=O)c3ccccc3[C@@H](C(=O)NCC(F)(F)F)[C@@H]2c2ccc(CO)cc2)nc1
class_label: M
//
compound: COC(=O)Cn1c(C(=O)N2CCCC2)cc2c1C[C@H]1CN(C(=O)c3ccccc3)[C@@](Cc3ccccc3)(C(=O)OC)[C@@H]21
class_label: H
//
compound: CC/C=C/C(=O)N(C[C@@H]1CCCO1)[C@@H]1CC(C(=O)NCCO)=C[C@H](Oc2c(I)cc(CO)cc2OC)[C@H]1O
class_label: H
//
compound: CO[C@H]1COC(=O)CC=C[C@H](C)[C@@H](OC)COC(=O)CC=C[C@@H]1C
class_label: M
//
compound: CC(C)=C1C(=O)C(c2ccccc2)=C2CN3C(=O)N(CCc4ccccc4)C(=O)[C@]3(Cc3ccccc3)[C@H]21
class_label: H

*Q* Band for the recorded z-score of O=C(NCC(F)(F)F)[C@@H]1c2ccccc2C(=O)N(Cc2ccccc2Cl)[C@H]1c1ccc(CO)cc1 ?
*A* M

---

Each item that follows carries a reported composite z-score.
experiment_description: anti-His antibody binders, primary screen, artefact control for SMM control protein annotation, biochemical, small-molecule microarray, 635 nm fluorescence (AID 1128);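 also: score merges feature fluorescence with signal-to-noise for each printed compound spot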
measurement_conditions: anti-His Alexa647 antibody binding, higher = more signal

molecule: COC(=O)[C@@]1(Cc2ccc(OC)cc2)[C@H]2c3cc(C(=O)N(C)C)n(Cc4ccc(C)c(F)c4F)c3C[C@H]2CN1C(=O)c1ccccc1
data_value: 0.158

# evaluate next
*Q* Suppose we examine the molecule C=CCC(OC(C)=O)[C@@H]1[C@@H](N(Cc2ccc(-c3ccccc3)cc2)C(=O)c2ccc(-c3ccccc3)cc2)c2cc(OCCCO)ccc2N1C(=O)Cc1ccc(OC)cc1 (stereo partly specified) ; what composite z-score value has been reported?
*A* -0.347

---

Tested on: Sam68 (KHDRBS1)
experiment_description: Sam68 small-molecule binders, primary screen, biochemical, small-molecule microarray, 635 nm fluorescence (AID 1125);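 also: score merges 667 nm channel intensity with signal to noise over triplicate slides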
measurement_conditions: small-molecule microarray binding, higher = more signal
Rule: composite z-score under -0.02 gives N, otherwise Y.

Previously resolved entries follow.
molecule: C[C@@H]1CC[C@H]2C(=O)N3CCC[C@H]3C(=O)N2[C@H]1c1ccc(Br)cc1
class_label: N
//
molecule: C=CCC(OC(C)=O)[C@@H]1[C@@H](N(Cc2ccc(-c3ccccc3)cc2)C(=O)c2ccc(-c3ccccc3)cc2)c2cc(OCCCO)ccc2N1C(=O)Cc1ccc(OC)cc1 (stereo partly drawn)
class_label: Y

*Q* Is composite z-score for CO[C@H]1COC(=O)[C@@H](OCc2ccccc2)C=C[C@H](C)[C@@H](OC)COC(=O)[C@H](OCc2ccccc2)C=C[C@@H]1C at or above -0.02?
*A* N

*Q* Is composite z-score for COc1cccc([C@@H]2[C@@H](C)CC[C@H]3C(=O)N4[C@H](c5cccc(OC)c5)[C@@H](C)CC[C@H]4C(=O)N23)c1 at or above -0.02?
*A* Y

*Q* Is composite z-score for Cc1ccc(S[C@]2(C(=O)O)CC(=O)N(Cc3cc(C(F)(F)F)cc(C(F)(F)F)c3)[C@@H]2c2ccc(CO)cc2I)cc1 at or above -0.02?
*A* Y

*Q* Is composite z-score for C=CCC(OC(C)=O)[C@@H]1[C@@H](N(Cc2ccc(-c3cccc(C(F)(F)F)c3)o2)C(=O)Cc2ccc(F)cc2)c2cc(OCCCO)ccc2N1C(=O)c1ccc(-c2ccccc2)cc1 (stereo partly drawn) at or above -0.02?
*A* N

*Q* Is composite z-score for COCC(=C=CC[C@H](O)c1ccc(OCCO)cc1)C[C@H](O)c1ccccn1 at or above -0.02?
*A* Y

*Q* Is composite z-score for C=CCN(C(=O)C1N(c2ccc(CCO)cc2)C(=O)C2C(C(=O)O)C3C=CC21O3)C(C)(C)C (stereo not drawn) at or above -0.02?
*A* N
